Answer each item with its documented IC50.
Test: Cytotoxicity against human SNK6 cells assessed as reduction in cell viability after 48 hrs by CCK8 assay
Type: functional, cell-based
Details: SNK6, 48 h

Exercise: Can you share its IC50? I mean this compound: COc1c(OC)c2c3c(nccc3c1-c1ccc(F)cc1)C(c1ccc(F)cc1)=CN2
Solution: > 20 µM

Exercise: Can you share its IC50? I mean this compound: COc1cc2ccnc3c2c(c1OC)NC=C3c1ccc(Cl)cc1
Solution: > 20 µM

Exercise: Can you share its IC50? I mean this compound: COc1ccc(C2=CNc3c(OC)c(OC)cc4ccnc2c34)cc1
Solution: > 20 µM

Exercise: Can you share its IC50? I mean this compound: COc1cc2ccnc3c2c(c1OC)NC=C3 [AAPTAMINE]
Solution: > 20 µM

Exercise: Can you share its IC50? I mean this compound: COc1cc2ccnc3c2c(c1OC)NC=C3c1cccc(F)c1
Solution: > 20 µM

Exercise: Can you share its IC50? I mean this compound: COc1ccc(-c2c(OC)c(OC)c3c4c(nccc24)C=CN3)cc1
Solution: 1.7 µM
